// data source = PubChem BioAssay (NCATS)

system: HeLa; assay: Primary qHTS to identify gynecologic anti-cancer compounds using libraries of approved drugs and bioactive compounds (AID 1345084); details: Gynecologic cancer cell panel viability, ATPlite luminescence, 48 h; series mostly up to 57.5 µM; further: on the % scale 0 is the no-effect control and ±100 the full control effect; nearly all actives have a fitted effect of over 55% in size
Inconclusive results are not listed. Activity calls are given as the source filed them. The call rests on the fitted dose curve; in most records, active means well fitted cell-killing curve with a large enough effect; inconclusive means small, poorly fitted or top-dose-only effect, or effect the other way; inactive means flat fitted curve, though single readings scatter.
parameter: activity change, negative = cytotoxicity

compound	activity change, negative = cytotoxicity
C[C@@H]1O[C@@H](O[C@H]2[C@H](OC(=O)[C@]34CCC(C)(C)C[C@H]3C3=CCC5[C@@]6(C)CC[C@H](O[C@@H]7O[C@H](CO[C@@H]8OC[C@H](O)[C@H](O)[C@H]8O)[C@@H](O)[C@H](O)[C@H]7O)C(C)(C)C6CC[C@@]5(C)[C@]3(C)C[C@H]4O)OC[C@@H](O)[C@@H]2O)[C@H](O)[C@H](O)[C@H]1O[C@@H]1OC[C@H](O)[C@H](O[C@@H]2OC[C@@H](O)[C@H](O)[C@H]2O)[C@H]1O (some centres not stated)	18.3% [at 6.55 µM] (inactive)

// next item, activity change, negative = cytotoxicity requested
Incoming: What measured activity change, negative = cytotoxicity goes with C/C=C(\C)C(=O)OC[C@H]1O[C@H](O[C@H]2O[C@H](CO)[C@@H](OC(=O)/C(C)=C/C)[C@H](O)[C@H]2O[C@@H]2O[C@H](CO)[C@@H](O)[C@H](O)[C@H]2O)[C@H](O[C@@H]2O[C@H](CO)[C@@H](O)[C@H](O)[C@H]2O)[C@@H](O)[C@@H]1O ?
Outgoing: 13.4% [at 11.6 µM] (inactive)

---

test: Primary fluorescence-based thiol-reactive (MSTI) qHTS assay for identification of artifact compounds. (AID 1845221); conditions: MSTI thiol-reactivity probe, 1 h; series mostly up to 53.8 µM;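 further: thiol-reactive compounds lower the probe fluorescence signal; nearly all actives have a fitted effect of over 65% in size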
Records with an inconclusive call do not appear. Calls of active or inactive are those of the source. Calls come from the whole dose curve; as a rule, active = well fitted inhibition curve with a large enough effect; inconclusive = small, poorly fitted or top-dose-only effect; inactive = no such curve, though single readings can be large or run the other way.
parameter: activity change, negative = thiol reactive

Take a look at these entries with their results.
compound	recordedResult
COC1CC(OC2CCC3(C)C(=CCC4C3CCC3(C)C(C(C)O)CCC43O)C2)OC(C)C1OC1OC(C)C(OC2OC(COC3OC(COC4OC(CO)C(O)C(O)C4O)C(O)C(O)C3O)C(O)C(O)C2O)C(OC)C1O (stereo not given)	54% [at 11.5 µM] (inactive)
CC1OC(OC2C(CO)OC(OCC3OC(OC(=O)C45CCC(C)(C)CC4C4=CCC6C7(C)CCC(OC8OC(C(=O)O)C(O)C(OC9OC(CO)C(O)C(O)C9O)C8O)C(C)(C)C7CCC6(C)C4(C)CC5)C(O)C(O)C3O)C(O)C2O)C(O)C(O)C1O (stereo not given)	336% [at 11.5 µM] (inactive)
CC[C@H](/C=C/[C@@H](C)[C@H]1CC[C@H]2[C@@H]3CC=C4C[C@@H](O)CC[C@]4(C)[C@H]3CC[C@]12C)C(C)C	-7.95% [at 6.41 µM] (inactive)
CC1(CO)CC[C@]2(C(=O)O[C@@H]3O[C@H](CO)[C@@H](O)[C@H](O)[C@H]3O)CC[C@]3(C)C(=CCC4[C@@]5(C)CC[C@H](O[C@@H]6O[C@H](C(=O)O)[C@@H](O)[C@H](O)[C@H]6O)C(C)(C)C5CC[C@]43C)C2C1 (stereo not given in full)	-2.52% [at 11.5 µM] (inactive)

// next item, activity change, negative = thiol reactive requested
Incoming: What measured activity change, negative = thiol reactive goes with CC1OC(OC2C(O)C(C(=O)O)OC(OC3CCC4(C)C(CCC5(C)C4C=CC4=C6CC(C)(C)CC(O)C6(C)CCC45C)C3(C)C)C2OC2OCC(O)C(O)C2O)C(O)C(O)C1O (stereo not given) ?
Outgoing: 161% [at 11.5 µM] (inactive)
